Test system: CCRF-CEM leukemia
EXPERIMENTAL_PROTOCOL: NCI tumour cell line growth inhibition, 48 h

# MOLECULE, TGI
rows = [
    ("Cc1nn(-c2cc(Cl)ccc2[N+](=O)[O-])c(C)c1Cl", "> 100 µM"),
    ("COc1ccc(NC2=CC(=O)C(=O)c3ccccc32)nn1", "> 100 µM"),
    ("CC(C)(C)C1C=C(Sc2ccccc2)C(=O)O1 (stereo unspecified)", "> 100 µM"),
    ("O=C(Cc1ccccc1)NN1C(=O)/C(=C\\c2ccc([N+](=O)[O-])cc2)SC1=Nc1ccccc1", "> 100 µM"),
    ("O=C1C2c3[nH]c4ccccc4c3C3CCCCCCC3C2C(=O)N1c1ccccc1 (stereo unspecified)", "25.6 µM"),
    ("O=C1NC2OC(CO)C(O)C(O1)C2O (stereo unspecified)", "> 100 µM"),
    ("O=C(Nc1ccccc1C(=O)NCCCO)/C(=C/c1ccccc1O)NC(=O)c1ccccc1", "> 100 µM"),
    ("COc1cc(/C=C\\C(=O)O)ccc1OCc1ccccc1", "> 100 µM"),
    ("C=C1C(=O)O[C@H]2[C@H]1CC/C(Cn1cc(-c3ccc(OC)cc3)nn1)=C\\CC[C@@]1(C)O[C@@H]21", "0.823 µM"),
    ("Brc1cccc(C=NC23CC4CC(CC(C4)C2)C3)c1", "> 100 µM"),
    ("O=C1CCC(=O)N2CCCCN12", "> 100 µM"),
]
